- Procedure Text: Rat 28-day GLP repeat dose PO study (toxicokinetics)
- Type: in vivo
- Condition Set: male, rat, in vivo, po, 1000 mg/kg
Counter-ions that a name gives are not always drawn.
Assay Endpoint: CL/F (mL/min/kg)
Write the value in mL/min/kg as a bare number.

Exercise: Field request: CL/F | item: CC1(C)SC(Nc2ccccc2O)=N[C@@H]1C(=O)O [Compound 1, mono-hydrochloride]
Solution: 56.8

====

- Procedure Text: Elimination from plasma after intravenous administration in rats
- Type: in vivo
- Condition Set: rat
Structures can show the parent of a compound that is named as a salt.
Assay Endpoint: half-life

Exercise: Field request: half-life | item: CC1(C)SC(Nc2ccccc2O)=N[C@@H]1C(=O)O [Compound 1, mono-hydrochloride]
Solution: ~3 h

====

- Procedure Text: Rat 28-day GLP repeat dose PO study (toxicokinetics)
- Type: in vivo
- Condition Set: male, rat, in vivo, po, 500 mg/kg, Day 14, M, 500 mg/kg PO; read-out: Cmax
Structures can show the parent of a compound that is named as a salt.
Assay Endpoint: Cmax (ng/mL)
Write the value in ng/mL as a bare number.

Exercise: Field request: Cmax | item: CC1(C)SC(Nc2ccccc2O)=N[C@@H]1C(=O)O [Compound 1, mono-hydrochloride]
Solution: 45800

====

- Procedure Text: Dog 7-day repeat dose PO study
- Type: in vivo
- Condition Set: male, plasma, 200 mg/kg, Day 7, 200 mg/kg PO, M, N = 1
Counter-ions that a name gives are not always drawn.
Assay Endpoint: half-life (h)
Write the value in h as a bare number.

Exercise: Field request: half-life | item: CC1(C)SC(Nc2ccccc2O)=N[C@@H]1C(=O)O [Compound 1, mono-hydrochloride]
Solution: 1.4

====

- Procedure Text: Rat 28-day GLP repeat dose PO study (toxicokinetics)
- Type: in vivo
- Condition Set: female, rat, in vivo, po, 2000 mg/kg, Day 28, F, 2000 mg/kg PO; read-out: CL/F (CLss/F) (converted)
Structures can show the parent of a compound that is named as a salt.
Assay Endpoint: CL/F (mL/min/kg)
Write the value in mL/min/kg as a bare number.

Exercise: Field request: CL/F | item: CC1(C)SC(Nc2ccccc2O)=N[C@@H]1C(=O)O [Compound 1, mono-hydrochloride]
Solution: 25.5

====

- Procedure Text: Dog 7-day repeat dose PO study
- Type: in vivo
- Condition Set: male, plasma, 350 mg/kg, Day 1, 350 mg/kg PO, M, N = 1
Counter-ions that a name gives are not always drawn.
Assay Endpoint: Cmax (µg/mL)
Write the value in µg/mL as a bare number.

Exercise: Field request: Cmax | item: CC1(C)SC(Nc2ccccc2O)=N[C@@H]1C(=O)O [Compound 1, mono-hydrochloride]
Solution: 176

====

- Procedure Text: in vivo
- Condition Set: female, Sprague Dawley, rat, po, 100 mg/kg, Compound 1 Concentration in rat plasma, 100 mg/kg single PO, 1 h post-dose, individual animals
Where a name gives a salt, the structure may show the parent alone.
Assay Endpoint: concentration at 1 h (µg/mL)
Write the value in µg/mL as a bare number.

Exercise: Field request: concentration at 1 h | item: CC1(C)SC(Nc2ccccc2O)=N[C@@H]1C(=O)O [Compound 1, mono-hydrochloride]
Solution: 53.9

====

- Procedure Text: Dog 7-day repeat dose PO study
- Format: in vivo
- Condition Set: female, plasma, 200 mg/kg, Day 7, 200 mg/kg PO, F, N = 1
Where a name gives a salt, the structure may show the parent alone.
Assay Endpoint: half-life (h)
Write the value in h as a bare number.

Exercise: Field request: half-life | item: CC1(C)SC(Nc2ccccc2O)=N[C@@H]1C(=O)O [Compound 1, mono-hydrochloride]
Solution: 1.5

====

- Procedure Text: Rat 28-day GLP repeat dose PO study (toxicokinetics)
- Assay type: in vivo
- Condition Set: female, rat, in vivo, po, 500 mg/kg, Day 28, F, 500 mg/kg PO
Where a name gives a salt, the structure may show the parent alone.
Assay Endpoint: AUC(0-inf) (µg·h/mL)
Write the value in µg·h/mL as a bare number.

Exercise: Field request: AUC(0-inf) | item: CC1(C)SC(Nc2ccccc2O)=N[C@@H]1C(=O)O [Compound 1, mono-hydrochloride]
Solution: 303

====

- Procedure Text: Rat pharmacokinetics after single PO dose
- Condition Set: female, Sprague Dawley (CD IGS, Crl:CD(SD)), rat, plasma, po, 100 mg/kg
Structures can show the parent of a compound that is named as a salt.
Assay Endpoint: concentration at 0.5 h (ng/mL)
Write the value in ng/mL as a bare number.

Exercise: Field request: concentration at 0.5 h | item: CC1(C)SC(Nc2ccccc2O)=N[C@@H]1C(=O)O [Compound 1, mono-hydrochloride]
Solution: 40800

====

- Procedure Text: Dog 28-day repeat dose PO study
- Format: in vivo
- Condition Set: male, beagle, dog, in vivo, po, 400 mg/kg, Day 28, 400 mg/kg PO, M; read-out: Cmax
Where a name gives a salt, the structure may show the parent alone.
Assay Endpoint: Cmax
Your answer should be a number followed by the unit of measure.

Exercise: Field request: Cmax | item: CC1(C)SC(Nc2ccccc2O)=N[C@@H]1C(=O)O [Compound 1, mono-hydrochloride]
Solution: 125 µg/mL

====

- Procedure Text: Rat brain distribution and pharmacokinetic study
- Assay type: in vivo
- Condition Set: rat, in vivo; 30 mg/kg oral dose; read-out: terminal half-life (converted)
Structures can show the parent of a compound that is named as a salt.
Assay Endpoint: half-life (h)
Write the value in h as a bare number.

Exercise: Field request: half-life | item: CC1(C)SC(Nc2ccccc2O)=N[C@@H]1C(=O)O [Compound 1, mono-hydrochloride]
Solution: 1.6

====

- Procedure Text: Rat 28-day GLP repeat dose PO study (toxicokinetics)
- Format: in vivo
- Condition Set: female, rat, in vivo, po, 2000 mg/kg, Day 28, F, 2000 mg/kg PO
Counter-ions that a name gives are not always drawn.
Assay Endpoint: AUC (µg·h/mL)
Write the value in µg·h/mL as a bare number.

Exercise: Field request: AUC | item: CC1(C)SC(Nc2ccccc2O)=N[C@@H]1C(=O)O [Compound 1, mono-hydrochloride]
Solution: 1300

====

- Procedure Text: Rat 28-day GLP repeat dose PO study (toxicokinetics)
- Assay type: in vivo
- Condition Set: female, rat, in vivo, po, 500 mg/kg, Day 28, F, 500 mg/kg PO
Where a name gives a salt, the structure may show the parent alone.
Assay Endpoint: AUC (µg·h/mL)
Write the value in µg·h/mL as a bare number.

Exercise: Field request: AUC | item: CC1(C)SC(Nc2ccccc2O)=N[C@@H]1C(=O)O [Compound 1, mono-hydrochloride]
Solution: 297

====

- Procedure Text: Dog 28-day repeat dose PO study
- Assay type: in vivo
- Condition Set: female, beagle, dog, in vivo, po, 250 mg/kg, Day 28, 250 mg/kg PO, F; read-out: Cmax
Structures can show the parent of a compound that is named as a salt.
Assay Endpoint: Cmax

Exercise: Field request: Cmax | item: CC1(C)SC(Nc2ccccc2O)=N[C@@H]1C(=O)O [Compound 1, mono-hydrochloride]
Solution: 89.5 µg/mL

====

- Procedure Text: Rat 28-day GLP repeat dose PO study (toxicokinetics)
- Format: in vivo
- Condition Set: female, rat, in vivo, po, 500 mg/kg, Day 14, F, 500 mg/kg PO; read-out: Cmax
Counter-ions that a name gives are not always drawn.
Assay Endpoint: Cmax (µg/mL)
Write the value in µg/mL as a bare number.

Exercise: Field request: Cmax | item: CC1(C)SC(Nc2ccccc2O)=N[C@@H]1C(=O)O [Compound 1, mono-hydrochloride]
Solution: 75

====

- Procedure Text: Dog single oral dose MTD study
- Assay type: in vivo
- Condition Set: female, dog, plasma; 500 mg/kg PO (Dose 2; Day 4), 1 h, F, N = 2; read-out: Average Compound 1 Concentration in dog plasma
Structures can show the parent of a compound that is named as a salt.
Assay Endpoint: concentration at 1 h (µg/mL)
Write the value in µg/mL as a bare number.

Exercise: Field request: concentration at 1 h | item: CC1(C)SC(Nc2ccccc2O)=N[C@@H]1C(=O)O [Compound 1, mono-hydrochloride]
Solution: 136

====

- Procedure Text: Rat 7-day repeat dose PO study (toxicokinetics, MTD)
- Assay type: in vivo
- Condition Set: both sexes, Sprague Dawley (Hsd:SD), rat, in vivo, po, 2000 mg/kg, Tmax (mean)
Where a name gives a salt, the structure may show the parent alone.
Assay Endpoint: Tmax
Your answer should be a number followed by the unit of measure.

Exercise: Field request: Tmax | item: CC1(C)SC(Nc2ccccc2O)=N[C@@H]1C(=O)O [Compound 1, mono-hydrochloride]
Solution: 2 h

====

- Procedure Text: Dog 7-day repeat dose PO study
- Assay type: in vivo
- Condition Set: female, plasma, 400 mg/kg, Day 1, 400 mg/kg PO, F, N = 1
- Experimental: The objective was to develop a preliminary toxicity profile of Compound 1 following daily oral (gavage) administration for 7 days to male and female dogs to support dose selection for a 28-day toxicity study in dogs. Doses were selected based on the results of the MTD phase. Dose levels were 0 (Vehicle Control), 200, 350 and 400 mg/kg (1 dog/sex/group). The vehicle was 0.5% aqueous HPMC. The animals used in this study were returned to the holding colony
Counter-ions that a name gives are not always drawn.
Assay Endpoint: AUC(0-t) (µg·h/mL)
Write the value in µg·h/mL as a bare number.

Exercise: Field request: AUC(0-t) | item: CC1(C)SC(Nc2ccccc2O)=N[C@@H]1C(=O)O [Compound 1, mono-hydrochloride]
Solution: 464
